Each record here notes measured folding stability dG.
B1: 5KPH (parent)
chain: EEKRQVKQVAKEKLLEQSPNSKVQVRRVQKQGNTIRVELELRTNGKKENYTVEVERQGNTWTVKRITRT

variants of: B1; assay: folding stability dG (cDNA display proteolysis); higher = more stable; settings: PBS, room temperature

>  <primary sequence>
YEKRQVKQVAKEKLLEQSPNSKVQVRRVQKQGNTIRVELELRTNGKKENYTVEVERQGNTWTVKRITRT

>  <value unit>
kcal/mol

>  <folding stability dG>
2.92

$$$$
>  <primary sequence>
EEKRQVKQVAKEKGLEQSPNSKVQVRRVQKQGNTIRVELELRTNGKKENYTVEVERQGNTWTVKRITRT

>  <value unit>
kcal/mol

>  <folding stability dG>
2.07

$$$$
>  <primary sequence>
EEKRQVKQVAKEKLLEQSPNSKVQVRRVQKQGNTIRVELELRTNGKKENYTAEVERQGNTWTVKRITRT

>  <value unit>
kcal/mol

>  <folding stability dG>
3.31

$$$$
>  <primary sequence>
EEKRQVKQVAKEKLLEQSPNSKVQVRRVQKQGNTIRVELELRTNRKKENYTVEVERQGNTWTVKRITRT

>  <value unit>
kcal/mol

>  <folding stability dG>
3.42

$$$$
>  <primary sequence>
EEKRQVKQVAKEKLLEQSPNSKVQVRRVQKQQNTIRVELELRTNGKKENYTVEVERQGNTWTVKRITRT

>  <value unit>
kcal/mol

>  <folding stability dG>
3.04

$$$$
>  <primary sequence>
EEKRQVKQVAKEKLLEQSPNSKVQVRRVQKQGNTIRVELELRTNGKKENYTVEVERVGNTWTVKRITRT

>  <value unit>
kcal/mol

>  <folding stability dG>
4.18

$$$$
>  <primary sequence>
EEKRQVPQVAKEKLLEQSPNSKVQVRRVQKQGNTIRVELELRTNGKKENYTVEVERQGNTWTVKRITRT

>  <value unit>
kcal/mol

>  <folding stability dG>
2.66

$$$$
>  <primary sequence>
EEKRQVKQVAKEKLLEQSPNSKVQVRRVQKQGNTIRVELELRTNGKKENYTVEVERQGNTLTVKRITRT

>  <value unit>
kcal/mol

>  <folding stability dG>
3.64

$$$$
>  <primary sequence>
EEKRQVKQVAKEGLLEQSPNSKVQVRRVQKQGNTIRVELELRTNGKKENYTVEVERQGNTWTVKRITRT

>  <value unit>
kcal/mol

>  <folding stability dG>
3.55

$$$$
>  <primary sequence>
EEKEQVKQVAKEKLLEQSPNSKVQVRRVQKQGNTIRVELELRTNGKKENYTVEVERQGNTWTVKRITRT

>  <value unit>
kcal/mol

>  <folding stability dG>
4.22

$$$$
>  <primary sequence>
EFKRQVKQVAKEKLLEQSPNSKVQVRRVQKQGNTIRVELELRTNGKKENYTVEVERQGNTWTVKRITRT

>  <value unit>
kcal/mol

>  <folding stability dG>
3.16

$$$$
>  <primary sequence>
EEKRQVKQVAKEKLLEQSDNSKVQVRRVQKQGNTIRVELELRTNGKKENYTVEVERQGNTWTVKRITRT

>  <value unit>
kcal/mol

>  <folding stability dG>
2.31

$$$$
>  <primary sequence>
EEKRQVKQVAKEKLLEQSPNSKVQVRRVQQQGNTIRVELELRTNGKKENYTVEVERQGNTWTVKRITRT

>  <value unit>
kcal/mol

>  <folding stability dG>
4.25

$$$$

Recorded values, source the MegaScale stability set (Tsuboyama et al. 2023).
